# System: HOP-62
# ASSAY DETAILS: NCI tumour cell line growth inhibition, 48 h
The source made the active and inactive calls. No stated cut-off is given here; in the data, active = GI50 up to about 1.1 µM and inactive = higher. Residues, ends and D or L forms follow the SMILES beside them.
Give your call using only these classes: active, inactive

Examples from the recorded data:
COMPOUND | ASSIGNED CLASS
O=[N+]([O-])c1ccc(C2=NOC(c3ccc(Cl)cc3)N2C23CC4CC(CC(C4)C2)C3)cc1 (stereo not drawn) | inactive
COC(=O)C(Cc1nc2ccc(Cl)cc2nc1O)C(=O)C(=O)Nc1cc(C)ccc1C (stereo not drawn) | inactive
CCC(C)C(NC(=O)C1CCCN1)C(=O)NC(C(=O)NCC(=O)NC(CC(N)=O)C(=O)NC(CC(C)C)C(=O)NC(CC(C)C)C(=O)NC(CCCCN)C(N)=O)C(C)C (stereo not drawn) (H-PIVGNLLK-NH2; configuration not given here) | inactive
Cc1cn(C2CC(n3cc(Cn4cc(F)c(=O)[nH]c4=O)nn3)C(CO)O2)c(=O)[nH]c1=O (stereo not drawn) | inactive
CC(=O)N/C(=C\c1ccc(Cc2nc3c([nH]2)C(=O)c2ccccc2C3=O)cc1)c1nc2c([nH]1)C(=O)c1ccccc1C2=O | inactive
Cc1ccc(S(=O)(=O)N/N=C(\c2nc3ccc([N+](=O)[O-])cc3[nH]c2=O)C(O)c2ccc([N+](=O)[O-])cc2)cc1 (stereo not drawn) | inactive
CCCS(=O)(=O)O | inactive
COc1ccc(C(=O)C(c2ccc(OC)cc2)C2(O)C(=O)Nc3c(Cl)cc(Cl)cc32)cc1 (stereo not drawn) | inactive

### Prompt Returns: the outcome recorded for CC(=O)NC(CCCCNC(=O)N(C)N=O)C(=O)NCc1ccccc1 (stereo not drawn) in this assay.
### Response inactive

### Prompt Please let me know the test result on file for CS(=O)(=O)CC(=O)c1ccccc1 .
### Response inactive

### Prompt Can you look up the reported call for COc1ccc(Oc2nc3ccc(C(F)(F)F)cc3nc2-c2ccccc2)cc1 for me?
### Response inactive

### Prompt Please let me know the test result on file for C(=N/Nc1ccccn1)/c1cccnc1 .
### Response inactive

### Prompt Tell me the assay call for CC(=O)OCC1OC(n2c(-c3ccccc3)c(C(C)=O)c(-c3ccc(Cl)cc3)c(C#N)c2=S)C(OC(C)=O)C(OC(C)=O)C1OC(C)=O (stereo not drawn) please.
### Response inactive

### Prompt Any idea what this test logged for CC(=O)NNc1nc(C)c(C(/C=C/c2ccc(/C=C/C(=N\NC(=O)c3ccncc3)c3sc(NNC(C)=O)nc3C)cc2)=N/NC(=O)c2ccncc2)s1 ?
### Response inactive

### Prompt Give the logged outcome of this assay for the following compound: CCOC(=O)c1sc2c(c1OC(=O)c1cccs1)c(=O)n(-c1ccccc1)c(=S)n2-c1ccccc1
### Response inactive

### Prompt Query: recorded result category for c1ccc([P+](CC[P+](c2ccccc2)(c2ccccc2)c2ccccc2)(c2ccccc2)c2ccccc2)cc1 in this test
### Response inactive

### Prompt Returns: the outcome recorded for CCOC(=O)c1ccc(NC(=O)O/N=C(/Cl)CCl)cc1 in this assay.
### Response inactive

### Prompt Can you look up the reported call for COC(=O)c1cc(C)n(NC(=O)OC(C)(C)C)c1C for me?
### Response inactive

### Prompt Status in this test for Cc1nc2ccccc2n1Cc1nnc(N)o1 ?
### Response inactive

### Prompt State the result this test recorded for COc1ccc2nc3n(c2c1)C(=O)c1ccccc1-3 .
### Response inactive

====

# System: HOP-18
# ASSAY DETAILS: NCI tumour cell line growth inhibition, 48 h
Calls of active or inactive are those of the source. Cut-off read from the data, not from the text of the source: active = GI50 up to about 1.1 µM and inactive = higher.
In this exercise, the only acceptable responses are YES (active), NO (inactive)

Solved entries:
COMPOUND | ASSIGNED CLASS
Cc1ccc(CCC(=O)C(=O)O)s1 | NO
CC(Oc1cc2oc(=O)cc(-c3ccccc3)c2cc1Cl)C(=O)O (stereo unspecified) | NO
COC1CC(OC)C2OC(c3ccccc3)OCC2O1 (stereo unspecified) | NO
CC[C@](O)(C(=O)O)c1cc2n(c(=O)c1CO)Cc1cc3ccccc3nc1-2 | YES
CSCSCC(CO)NC(=O)/C=C/c1c(C)nc(O)nc1O (stereo unspecified) | NO

### Prompt Name the outcome recorded for COc1ccc(/C=C/C(=O)c2c(-c3ccccc3)nn(C)c(=O)c2N2CC2C)cc1 (stereo unspecified) in the assay.
### Response NO

### Prompt Any idea what this test logged for O=C(O)CN(c1ccccc1)S(=O)(=O)c1ccc([N+](=O)[O-])cc1 ?
### Response NO

### Prompt Per the assay record, what outcome was assigned to NC1CCCCC1 ?
### Response YES

### Prompt // return assay outcome for COC1=CC(=O)c2ccc(C(C)C)cc2C1(C)C1=NC(C)(C)CO1 (stereo unspecified)
### Response NO

### Prompt Please indicate how the test categorized C=CCOC(C)n1c(C)cc(=O)n(C(C)OCC=C)c1=O (stereo unspecified) .
### Response NO

====

# System: COLO 205
# ASSAY DETAILS: NCI tumour cell line growth inhibition, 48 h
The source made the active and inactive calls. No stated cut-off is given here; in the data, active = GI50 up to about 1.1 µM and inactive = higher.
Output constraint: value belongs to 1 for active, -1 for inactive

Some entries whose results are on file:
COMPOUND | SUBJECT OF TEST | ASSIGNED CLASS
Cc1nnc(Nc2ccc(Cl)cc2)o1 | COLO 205 | -1
COc1cc([C@@H]2c3cc4c(cc3[C@@H](Nc3ccc(Cl)cc3C(=O)c3ccccc3)[C@H]3COC(=O)[C@H]23)OCO4)cc(OC)c1OC | COLO 205 | 1

### Prompt // return assay outcome for COC(=O)c1c(C)cc(OC)c(C/C=C(\C)CCCc2coc(C=C(C)C)c2)c1OC
### Response -1

### Prompt Dear colleague, could you share the recorded outcome for O=CN1CCN(C(=O)c2ccc(Cl)cc2Cl)C1=S when you have a moment?
### Response -1

### Prompt Look up the recorded call for COc1ccc(C(=O)/C=C/c2ccc(OCCCCCCCCCCOc3ccc(/C=C/C(=O)c4ccc(OC)c(OC)c4)cc3)cc2)c(OC)c1 in this test.
### Response -1

====

# Tested on: OVCAR-8
# ASSAY DETAILS: NCI tumour cell line growth inhibition, 48 h
Calls of active or inactive are those of the source. Cut-off read from the data, not from the text of the source: active = GI50 up to about 1.1 µM and inactive = higher.
Write down the outcome that applies. Available outcomes: active, inactive

COMPOUND | ASSIGNED CLASS
O=c1c2ccc(Cl)cc2oc2c(CSc3ccccc3)cccc12 | inactive
O=[N+]([O-])c1ccc(/N=N\c2c(O)c(S(=O)(=O)O)cc3cc(S(=O)(=O)O)ccc23)cc1 | inactive
O=c1n(-c2ccccc2)c(=O)n2n1C1Cc3ccccc3C12 (configuration not stated) | inactive
CC(=O)NC(CCCCNC(=O)N(C)N=O)C(=O)NCc1ccccc1 (configuration not stated) | inactive
CSC(SC)=C(C#N)C(=O)Nc1ccc(Cl)cc1 | inactive
CCOC(=O)c1[nH]c(-c2[nH]c(-c3[nH]c(-c4[nH]c(C(=O)OCC)c(C)c4C(=O)OCC)c(C(=O)OCC)c3C)c(C)c2C(=O)OCC)c(C(=O)OCC)c1C | inactive

### Prompt Field: outcome | Entry: C/C=C(/I)CBr
### Response inactive

### Prompt For COC1CC(NC(=O)C(F)(F)F)C(OC(C)=O)C(C)O1 (configuration not stated) , which call appears in the assay record?
### Response inactive

### Prompt Just curious, what result did Cc1cnc(-c2c[nH]c3ccccc23)nc1-c1c[nH]c2ccccc12 get here?
### Response inactive

### Prompt Would you mind telling me which call this test gave Cc1n[nH]c(=O)n1/N=C/c1ccc(F)cc1 ?
### Response inactive

### Prompt Tell me the assay call for O=P(c1ccccc1)(c1ccccc1)c1ccc2c(c1)OCCOCCOCCOCCO2 please.
### Response inactive

### Prompt Fill in: this test's call for CC(=O)N/C(=C\c1ccc(Cc2nc3c([nH]2)C(=O)c2ccccc2C3=O)cc1)c1nc2c([nH]1)C(=O)c1ccccc1C2=O is ___
### Response inactive

### Prompt Tell me the recorded outcome of this test for N=c1c2c(=S)n(-c3ccccc3)c(=S)n(-c3ccccc3)c2nc(SCCCN2CCCCC2)n1-c1ccccc1 .
### Response inactive

### Prompt Which result was noted for this compound in the test: CCN(CC)CCCNc1nccc2c(C)c3c(cc12)c1cnccc1n3C
### Response active

### Prompt Recorded test outcome, item CCCCn1c(-c2ccccc2)cs/c1=N\N=C1C=C(C(C)(C)C)C(=O)C(C(C)(C)C)=C1
### Response inactive

### Prompt Could you kindly confirm the outcome this assay logged for O=C(NC1C/C(=N/O)c2c(Br)sc(Br)c21)C(F)(F)F (configuration not stated) ?
### Response inactive

### Prompt Answer briefly: the call reported for NC(=O)Cc1nc2c(O)ncnc2n1C1OC(CO)C(O)C1O (configuration not stated) in this assay.
### Response inactive
